# System: K-562 leukemia
# protocol_text: NCI tumour cell line growth inhibition, 48 h
measurement_name: TGI

Solved entries (count: 3):
molecule	tested_system	TGI
COc1ccc(C(=O)/C=C/c2ccc(OCCSCCCCCCCCCCSCCOc3ccc(/C=C/C(=O)c4ccc(OC)c(OC)c4)cc3)cc2)cc1OC	K-562 leukemia	> 100 µM
Clc1ccc(-c2c(C3=NCCCN3)nnn2-c2ccccc2)cc1	K-562 leukemia	> 100 µM
O=C1C=CC(=O)c2c1ccc1c3ccccc3n(Cc3cccc([N+](=O)[O-])c3)c21	K-562 leukemia	> 59.9 µM

Quick one: TGI of Cc1ccc(NC(=O)/C(Cl)=C(/Cl)C(=O)O)cc1 ?
23.5 µM

Quick one: TGI of CC(=O)c1cc(C(=O)c2ccc3c(c2)Sc2ccccc2N3)c2cc(C)ccn12 ?
> 100 µM

Quick one: TGI of CN(c1cn(C2CC[C@@H](CO)O2)c(=O)[nH]c1=O)C1CCCCC1 (stereo not given in full) ?
> 100 µM

Quick one: TGI of Clc1cc(Cl)cc(N2N=C(c3cccc(Nc4ccncc4)c3)CC2c2ccc3c(c2)OCO3)c1 (stereo not given) ?
4.86 µM

Quick one: TGI of CSC12c3cc(C)n(-c4ccccc4)c3CC(C)(C)CN1C(=O)C2Oc1ccccc1 (stereo not given) ?
> 100 µM

Quick one: TGI of COc1cc2c(cc1OC)C1Cc3cc(OC)c(OC)cc3C(C2)N1C ?
> 100 µM
